# credit: ChEMBL document CHEMBL1155301

compounds and their reported bioavailability
Assay: Oral bioavailability in rat at 2 mg/kg
Type: ADME, organism-based
Conditions: in vivo

| Smi | Measure Unit | bioavailability |
| --- | --- | --- |
| CCCOCCn1c(=O)c(NCC(=O)N2CCN(CC)CC2)nc2cnc(-c3ccc(OC)nc3)cc21 | % | 61 |
| CCCOCCn1c(=O)c(NCC(=O)N(C)C)nc2cnc(-c3ccc(OC)nc3)cc21 | % | 52 |
| CCCOCCn1c(=O)c(NCC(=O)N2CCOCC2)nc2ncc(-c3ccc(OC)nc3)cc21 | % | 51 |
| CCCOCCn1c(=O)c(NCC(=O)N2CCOCC2)nc2cnc(-c3ccc(OC)nc3)cc21 | % | 35 |
| CCCOCCn1c(=O)c(N[C@H](CC)CO)nc2cnc(-c3ccc(OC)nc3)cc21 | % | 61 |
| CCCOCCn1c(=O)c(NCC(=O)N2CCC(O)CC2)nc2cnc(-c3ccc(OC)nc3)cc21 | % | 52 |
| CCCOCCn1c(=O)c(NCCCO)nc2cnc(-c3ccc(OC)nc3)cc21 | % | 52 |
| CCCOCCn1c(=O)c(NCc2ccccn2)nc2cnc(-c3ccc(OC)nc3)cc21 | % | 54 |
| CCCOCCn1c(=O)c(NC[C@H](C)O)nc2cnc(-c3ccc(OC)nc3)cc21 | % | 42 |

----------
Experiment: Selectivity ratio of IC50 for PDE5 to IC50 for PDE6
compounds and their reported Ratio IC50
Recorded Endpoint: Ratio IC50

| Smi | Recorded Endpoint | Reported Measurement |
| --- | --- | --- |
| CCCOCCn1c(=O)c(NCCO)nc2cnc(-c3ccc(OC)nc3)cc21 | Ratio IC50 | 30 |
| CCCOCCn1c(=O)c(NCC(=O)N(C)C)nc2cnc(-c3ccc(OC)nc3)cc21 | Ratio IC50 | 97 |
| CCCOCCn1c(=O)c(NCCCO)nc2cnc(-c3ccc(OC)nc3)cc21 | Ratio IC50 | 30 |
| CCCOCCn1c(=O)c(NCCO)nc2ncc(-c3ccc(OC)nc3)cc21 | Ratio IC50 | 97 |

----------
molecules and their reported Vd
Experiment: Volume of distribution in dog at 2 mg/kg, iv and 2 mg/kg, po
Assay type: ADME, organism-based, Canis lupus familiaris
Conditions: in vivo

| Smi | Vd (L/kg) |
| --- | --- |
| CCCOCCn1c(=O)c(N[C@H]2CC[C@H](O)CC2)nc2cnc(-c3ccc(OC)nc3)cc21 | 3.7 |
| CCCOCCn1c(=O)c(NC[C@H](C)O)nc2cnc(-c3ccc(OC)nc3)cc21 | 4.3 |
| CCCOCCn1c(=O)c(NCC(=O)NC)nc2ncc(-c3ccc(OC)nc3)cc21 | 1.3 |
| CCCOCCn1c(=O)c(NCC(=O)N2CCOCC2)nc2ncc(-c3ccc(OC)nc3)cc21 | 0.9 |
| CCCOCCn1c(=O)c(NCC(=O)N2CCN(CC)CC2)nc2cnc(-c3ccc(OC)nc3)cc21 | 8 |
| CCCOCCn1c(=O)c(NCC(=O)N(C)C)nc2cnc(-c3ccc(OC)nc3)cc21 | 0.4 |
| CCCOCCn1c(=O)c(NCC(=O)N(C)C)nc2ncc(-c3ccc(OC)nc3)cc21 | 1.2 |
| CCCOCCn1c(=O)c(NCC(=O)N2CCOCC2)nc2cnc(-c3ccc(OC)nc3)cc21 | 1.2 |

----------
Test: Clearance in rat at 2 mg/kg, po and 2 mg/kg, iv
Assay type: ADME, organism-based
Conditions: in vivo
Mark 0 for clearance values under 30 mL/min/kg, and 1 for everything at or above.

| Compound | Label Value |
| --- | --- |
| CCCOCCn1c(=O)c(NCC(=O)N2CCOCC2)nc2ncc(-c3ccc(OC)nc3)cc21 | 0 |
| CCCOCCn1c(=O)c(NCC(=O)N2CCN(CC)CC2)nc2cnc(-c3ccc(OC)nc3)cc21 | 0 |
| CCCOCCn1c(=O)c(NCC2CCCO2)nc2cnc(-c3ccc(OC)nc3)cc21 (racemic) | 1 |
| CCCOCCn1c(=O)c(NCCNCCO)nc2cnc(-c3ccc(OC)nc3)cc21 | 1 |
| CCCOCCn1c(=O)c(NCCCO)nc2cnc(-c3ccc(OC)nc3)cc21 | 0 |
| CCCOCCn1c(=O)c(NCC(=O)N2CCOCC2)nc2cnc(-c3ccc(OC)nc3)cc21 | 0 |
| CCCOCCn1c(=O)c(NCC(=O)N(C)C)nc2ncc(-c3ccc(OC)nc3)cc21 | 1 |
| CCCOCCn1c(=O)c(N[C@H]2CC[C@H](O)CC2)nc2cnc(-c3ccc(OC)nc3)cc21 | 0 |

----------
Target: High affinity cAMP-specific and IBMX-insensitive 3',5'-cyclic phosphodiesterase 8B (Homo sapiens, UniProt O95263)
Sequence (O95263 whole entry): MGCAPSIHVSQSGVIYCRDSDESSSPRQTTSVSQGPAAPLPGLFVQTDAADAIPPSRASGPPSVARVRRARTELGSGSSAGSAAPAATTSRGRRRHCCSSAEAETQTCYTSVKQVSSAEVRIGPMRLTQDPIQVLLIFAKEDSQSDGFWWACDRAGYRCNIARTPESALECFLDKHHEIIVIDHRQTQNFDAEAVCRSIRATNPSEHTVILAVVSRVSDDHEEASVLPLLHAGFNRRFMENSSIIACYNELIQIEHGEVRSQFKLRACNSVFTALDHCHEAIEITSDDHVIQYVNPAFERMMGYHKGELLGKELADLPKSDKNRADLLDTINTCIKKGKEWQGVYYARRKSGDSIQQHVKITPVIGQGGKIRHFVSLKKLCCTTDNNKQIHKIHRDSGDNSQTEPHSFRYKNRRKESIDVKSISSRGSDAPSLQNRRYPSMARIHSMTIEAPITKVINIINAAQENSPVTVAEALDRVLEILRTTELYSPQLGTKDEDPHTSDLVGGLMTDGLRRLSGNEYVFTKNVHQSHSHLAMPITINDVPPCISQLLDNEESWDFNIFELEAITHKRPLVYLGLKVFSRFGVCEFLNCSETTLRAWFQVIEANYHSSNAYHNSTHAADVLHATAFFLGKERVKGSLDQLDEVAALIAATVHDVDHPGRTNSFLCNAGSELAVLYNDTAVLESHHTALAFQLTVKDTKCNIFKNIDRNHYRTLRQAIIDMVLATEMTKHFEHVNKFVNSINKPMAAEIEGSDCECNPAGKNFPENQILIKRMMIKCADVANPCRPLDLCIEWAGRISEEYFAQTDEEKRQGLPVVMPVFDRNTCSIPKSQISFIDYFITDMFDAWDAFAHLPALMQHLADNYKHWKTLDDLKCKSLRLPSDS
pIC50: −log10 of the molar value.
compounds and their reported pIC50
Recorded Endpoint: pIC50

| Smi | Reported Measurement |
| --- | --- |
| CCCOCCn1c(=O)c(NCCN2CCOCC2)nc2cnc(-c3ccc(OC)nc3)cc21 | < 5.70 |
| CCCOCCn1c(=O)c(N[C@H]2CC[C@H](O)CC2)nc2cnc(-c3ccc(OC)nc3)cc21 | < 5.70 |

----------
Assay: Oral bioavailability in dog at 2 mg/kg
Assay type: ADME, organism-based, Canis lupus familiaris
Settings: in vivo
Recorded Endpoint: bioavailability (%)

| Smi | Reported Measurement |
| --- | --- |
| CCCOCCn1c(=O)c(NC[C@H](C)O)nc2cnc(-c3ccc(OC)nc3)cc21 | 38 |
| CCCOCCn1c(=O)c(NCC(=O)N2CCN(CC)CC2)nc2cnc(-c3ccc(OC)nc3)cc21 | 15 |
| CCCOCCn1c(=O)c(NCC(=O)N(C)C)nc2ncc(-c3ccc(OC)nc3)cc21 | 32 |
| CCCOCCn1c(=O)c(NCC(=O)N2CCOCC2)nc2ncc(-c3ccc(OC)nc3)cc21 | 32 |
| CCCOCCn1c(=O)c(NCC(=O)N(C)C)nc2cnc(-c3ccc(OC)nc3)cc21 | 30 |

----------
Test: Half life in rat
Assay type: ADME, organism-based
Conditions: in vivo
compounds and their reported half-life
Recorded Endpoint: half-life

| Smi | Reported Measurement |
| --- | --- |
| CCCOCCn1c(=O)c(NCCN2CCOCC2)nc2cnc(-c3ccc(OC)nc3)cc21 | 0.8 h |
| CCCOCCn1c(=O)c(NCCN2CCOCC2)nc2ncc(-c3ccc(OC)nc3)cc21 | 1.8 h |

----------
Molecular target: 3',5'-cyclic-AMP phosphodiesterase 4C (Homo sapiens, UniProt Q08493)
Sequence (Q08493 whole entry): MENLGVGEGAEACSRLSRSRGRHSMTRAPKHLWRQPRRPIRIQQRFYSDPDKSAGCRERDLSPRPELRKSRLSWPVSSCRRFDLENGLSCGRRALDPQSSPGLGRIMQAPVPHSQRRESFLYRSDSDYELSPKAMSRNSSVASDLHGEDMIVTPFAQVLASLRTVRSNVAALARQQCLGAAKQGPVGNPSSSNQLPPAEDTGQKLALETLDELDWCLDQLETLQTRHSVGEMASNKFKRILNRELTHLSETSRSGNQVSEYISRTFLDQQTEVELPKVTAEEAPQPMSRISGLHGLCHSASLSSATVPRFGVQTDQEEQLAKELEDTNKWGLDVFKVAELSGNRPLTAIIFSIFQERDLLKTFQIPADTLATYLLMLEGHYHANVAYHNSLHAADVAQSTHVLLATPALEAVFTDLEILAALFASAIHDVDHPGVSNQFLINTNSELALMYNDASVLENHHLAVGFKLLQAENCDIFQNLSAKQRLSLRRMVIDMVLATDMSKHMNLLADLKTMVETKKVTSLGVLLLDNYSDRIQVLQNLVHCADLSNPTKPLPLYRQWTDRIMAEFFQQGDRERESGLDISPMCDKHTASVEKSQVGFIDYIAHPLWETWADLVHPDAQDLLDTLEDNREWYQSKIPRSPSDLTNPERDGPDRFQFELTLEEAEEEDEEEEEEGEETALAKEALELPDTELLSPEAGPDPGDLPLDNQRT
pIC50: −log10 of the molar value.
Recorded Endpoint: pIC50

| Smi | Recorded Endpoint | Reported Measurement |
| --- | --- | --- |
| CCCOCCn1c(=O)c(N[C@H]2CC[C@H](O)CC2)nc2cnc(-c3ccc(OC)nc3)cc21 | pIC50 | < 5.70 |

----------
Assay: Clearance in dog at 2 mg/kg, po and 2 mg/kg, iv
Format: ADME, organism-based, Canis lupus familiaris
Conditions: in vivo
molecules and their reported log10 clearance
Recorded Endpoint: log10 clearance (log10 of the value in mL/min/kg)

| Smi | log10 clearance |
| --- | --- |
| CCCOCCn1c(=O)c(NCC(=O)N2CCOCC2)nc2cnc(-c3ccc(OC)nc3)cc21 | 0.72 |
| CCCOCCn1c(=O)c(NCC(=O)N(C)C)nc2cnc(-c3ccc(OC)nc3)cc21 | 0.26 |
| CCCOCCn1c(=O)c(N[C@H]2CC[C@H](O)CC2)nc2cnc(-c3ccc(OC)nc3)cc21 | 0.54 |
| CCCOCCn1c(=O)c(NCC(=O)N2CCOCC2)nc2ncc(-c3ccc(OC)nc3)cc21 | 1.22 |
| CCCOCCn1c(=O)c(NC[C@H](C)O)nc2cnc(-c3ccc(OC)nc3)cc21 | 1.25 |
| CCCOCCn1c(=O)c(NCC(=O)N(C)C)nc2ncc(-c3ccc(OC)nc3)cc21 | 0.97 |
| CCCOCCn1c(=O)c(NCC(=O)NC)nc2ncc(-c3ccc(OC)nc3)cc21 | 0.94 |
| CCCOCCn1c(=O)c(NCC(=O)N2CCN(CC)CC2)nc2cnc(-c3ccc(OC)nc3)cc21 | 1.57 |
